Below are AC50 values measured for Glucocorticoid receptor (Homo sapiens).
Where a SMILES comes first, the peptide text is derived from it.

The cases that follow already have their AC50 on record.
CCc1ccc(C(=O)C(C)CN2CCCCC2)cc1 (centres undefined) ... > 30 µM
CCN(CC)CCn1c(=O)c(Cc2ccc(OC)cc2)nc2ccccc21 ... > 30 µM
Cc1cccc(Nc2ccncc2S(=O)(=O)NC(=O)NC(C)C)c1 [TORSEMIDE] ... > 10 µM
CCN(CCO)CCCC(C)Nc1ccnc2cc(Cl)ccc12 (centres undefined) [HYDROXYCHLOROQUINE] ... > 10 µM
Cc1nnc2n1-c1ccc(Cl)cc1C(c1ccccc1)=NC2 ... > 30 µM
CC(=O)N1CCN(c2ccc(OCC3COC(Cn4ccnc4)(c4ccc(Cl)cc4Cl)O3)cc2)CC1 (centres undefined) ... > 10 µM

Look up AC50 for the entries below, preserving their order.
1. C[C@H](N)C(=O)N[C@@H](CCC(N)=O)C(=O)O [ALANYL GLUTAMINE] (H-Ala-Gln-OH)
2. O=C(O)c1nn(Cc2ccc(Cl)cc2Cl)c2ccccc12
3. CCC(=O)O[C@H](CC(=O)O)C[N+](C)(C)C [LEVOCARNITINE PROPIONATE]

1. > 30 µM
2. > 30 µM
3. > 30 µM

====

Hi there, I'd appreciate the recorded AC50 for every entry that follows.
- Target under test: Sodium-dependent noradrenaline transporter (Homo sapiens, UniProt P23975); further: assay procedure not described here
- Sequence (P23975 whole entry): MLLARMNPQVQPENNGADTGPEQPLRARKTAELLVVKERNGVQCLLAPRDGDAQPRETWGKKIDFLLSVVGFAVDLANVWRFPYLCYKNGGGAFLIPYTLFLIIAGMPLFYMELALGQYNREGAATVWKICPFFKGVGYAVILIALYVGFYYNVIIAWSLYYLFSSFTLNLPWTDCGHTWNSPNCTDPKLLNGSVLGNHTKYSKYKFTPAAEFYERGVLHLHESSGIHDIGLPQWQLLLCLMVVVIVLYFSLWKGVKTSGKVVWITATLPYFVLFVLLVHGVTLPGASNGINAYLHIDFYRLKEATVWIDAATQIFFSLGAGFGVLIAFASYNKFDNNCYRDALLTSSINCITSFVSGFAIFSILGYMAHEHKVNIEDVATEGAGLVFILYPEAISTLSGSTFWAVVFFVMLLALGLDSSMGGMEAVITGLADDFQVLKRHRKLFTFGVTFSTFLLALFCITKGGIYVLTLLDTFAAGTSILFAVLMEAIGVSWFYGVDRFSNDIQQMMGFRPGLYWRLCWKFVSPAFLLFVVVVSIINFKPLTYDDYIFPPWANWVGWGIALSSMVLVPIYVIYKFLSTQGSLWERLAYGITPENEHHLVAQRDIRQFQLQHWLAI

The cases that follow already have their AC50 on record.
CCn1c(=O)c2c(nc(/C=C/c3ccc(OC)c(OC)c3)n2C)n(CC)c1=O [ISTRADEFYLLINE] ... > 30 µM
OCCOCCN1CCN(C(c2ccccc2)c2ccc(Cl)cc2)CC1 (centres undefined) [HYDROXYZINE] ... > 10 µM
CCN(CC)Cc1nccn1-c1ccc([N+](=O)[O-])cc1C(=O)c1ccccc1Cl [NIZOFENONE] ... > 30 µM

Now look at this one.
Any idea what AC50 was measured for CC1Cc2ccccc2N1NC(=O)c1ccc(Cl)c(S(N)(=O)=O)c1 (centres undefined) [INDAPAMIDE] ?
> 30 µM

====

- Target under test: Vascular endothelial growth factor receptor 2 (Homo sapiens, UniProt P35968); further: assay procedure not described here
- Sequence (P35968 whole entry): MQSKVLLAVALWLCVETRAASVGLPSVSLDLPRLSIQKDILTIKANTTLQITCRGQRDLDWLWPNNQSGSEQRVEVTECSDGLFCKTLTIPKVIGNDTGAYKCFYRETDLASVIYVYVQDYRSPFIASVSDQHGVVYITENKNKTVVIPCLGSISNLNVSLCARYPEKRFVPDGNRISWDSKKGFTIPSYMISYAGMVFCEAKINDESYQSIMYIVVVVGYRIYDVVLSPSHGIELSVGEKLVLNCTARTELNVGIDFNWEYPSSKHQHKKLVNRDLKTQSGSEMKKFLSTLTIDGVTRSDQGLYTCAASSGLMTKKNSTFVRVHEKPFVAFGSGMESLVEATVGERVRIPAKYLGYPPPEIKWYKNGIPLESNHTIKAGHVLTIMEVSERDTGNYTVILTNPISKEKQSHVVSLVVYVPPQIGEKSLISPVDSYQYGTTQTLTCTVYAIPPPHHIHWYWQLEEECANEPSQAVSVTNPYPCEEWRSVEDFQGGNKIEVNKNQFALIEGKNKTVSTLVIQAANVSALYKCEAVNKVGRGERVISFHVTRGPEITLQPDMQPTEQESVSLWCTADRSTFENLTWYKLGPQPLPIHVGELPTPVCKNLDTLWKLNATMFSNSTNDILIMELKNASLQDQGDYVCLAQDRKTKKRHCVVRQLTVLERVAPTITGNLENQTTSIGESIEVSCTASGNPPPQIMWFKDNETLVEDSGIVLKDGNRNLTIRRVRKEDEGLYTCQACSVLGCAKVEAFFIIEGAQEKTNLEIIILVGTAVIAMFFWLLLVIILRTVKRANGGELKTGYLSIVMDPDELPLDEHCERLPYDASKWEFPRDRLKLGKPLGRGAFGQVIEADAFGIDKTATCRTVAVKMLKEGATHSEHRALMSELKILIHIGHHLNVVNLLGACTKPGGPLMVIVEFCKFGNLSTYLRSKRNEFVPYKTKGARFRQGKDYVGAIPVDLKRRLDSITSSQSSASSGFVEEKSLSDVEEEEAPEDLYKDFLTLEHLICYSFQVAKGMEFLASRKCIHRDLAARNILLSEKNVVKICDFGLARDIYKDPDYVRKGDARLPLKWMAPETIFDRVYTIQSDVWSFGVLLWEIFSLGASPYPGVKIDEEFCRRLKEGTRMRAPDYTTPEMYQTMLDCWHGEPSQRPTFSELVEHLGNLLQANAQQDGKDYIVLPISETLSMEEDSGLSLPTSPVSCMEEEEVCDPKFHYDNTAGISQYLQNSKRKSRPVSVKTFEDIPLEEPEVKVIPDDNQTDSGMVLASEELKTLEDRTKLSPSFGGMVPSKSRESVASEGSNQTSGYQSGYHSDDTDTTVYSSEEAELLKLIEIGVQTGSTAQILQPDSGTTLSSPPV
- Assay type: functional
Measure: AC50

Nc1ccn(C[C@@H](CO)OCP(=O)(O)O)c(=O)n1 ... > 30 µM

Look up AC50 for the entries below, preserving their order.
1. CC1(C)S[C@@H]2[C@H](NC(=O)[C@H](NC(=O)c3cnc4cccnc4c3O)c3ccccc3)C(=O)N2[C@H]1C(=O)O
2. COC(=O)N[C@H](C(=O)N1CC2(CC2)C[C@H]1c1ncc(-c2ccc3c(c2)C(F)(F)c2cc(-c4ccc5nc([C@@H]6[C@H]7CC[C@H](C7)N6C(=O)[C@@H](NC(=O)OC)C(C)C)[nH]c5c4)ccc2-3)[nH]1)C(C)C

1. > 30 µM
2. > 30 µM

====

Hi there, I'd appreciate the recorded AC50 for every entry that follows.
- Target under test: Muscarinic acetylcholine receptor M2 (Homo sapiens, UniProt P08172); further: assay procedure not described here
- Sequence (P08172 whole entry): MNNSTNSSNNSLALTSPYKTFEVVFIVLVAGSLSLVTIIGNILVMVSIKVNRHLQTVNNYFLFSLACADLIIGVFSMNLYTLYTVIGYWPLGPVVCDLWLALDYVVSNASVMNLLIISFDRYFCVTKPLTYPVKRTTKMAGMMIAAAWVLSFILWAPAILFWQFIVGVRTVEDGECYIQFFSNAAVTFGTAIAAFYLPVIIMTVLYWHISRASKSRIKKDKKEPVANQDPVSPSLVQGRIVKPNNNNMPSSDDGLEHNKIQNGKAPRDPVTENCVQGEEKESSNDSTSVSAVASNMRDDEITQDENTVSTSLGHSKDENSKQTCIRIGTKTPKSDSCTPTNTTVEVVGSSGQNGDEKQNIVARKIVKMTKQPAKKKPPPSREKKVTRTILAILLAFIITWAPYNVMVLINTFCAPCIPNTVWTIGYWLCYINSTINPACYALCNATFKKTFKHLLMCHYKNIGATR
- Assay type: functional, cell-based

The cases that follow already have their AC50 on record.
CCn1c(=O)c2c(nc(/C=C/c3ccc(OC)c(OC)c3)n2C)n(CC)c1=O [ISTRADEFYLLINE] ... > 30 µM
CCN1C(=O)NC(c2ccccc2)C1=O (stereo not drawn) [ETHOTOIN] ... > 30 µM
COC(=O)[C@H]1[C@H]2C[C@@H]3c4[nH]c5ccccc5c4CCN3C[C@H]2C[C@@H](OC(=O)c2cc(OC)c(OC)c(OC)c2)[C@@H]1OC [DESERPIDINE] ... > 10 µM
COc1ccc(C(Cl)=C(c2ccc(OC)cc2)c2ccc(OC)cc2)cc1 [CHLOROTRIANISENE] ... > 30 µM
CC1NCCOC1c1ccccc1 (stereo not drawn) [PHENMETRAZINE] ... > 10 µM

Look up AC50 for the entries below, preserving their order.
1. Cc1nnc2n1-c1ccc(Cl)cc1C(c1ccccc1)=NC2 [ALPRAZOLAM]
2. CCCCCCCC(=O)CC[C@@H]1[C@@H](C/C=C\CCCC(=O)O)[C@@H](O)C[C@H]1O [UNOPROSTONE]
3. CC(C)/N=c1\cc2n(-c3ccc(Cl)cc3)c3ccccc3nc-2cc1Nc1ccc(Cl)cc1 [CLOFAZIMINE]

["> 10 µM", "> 30 µM", "> 30 µM"]

Hey, just so you know, these numbers are from ChEMBL document CHEMBL5291721.
